Target: Alpha-2A adrenergic receptor (Homo sapiens, UniProt P08913)
Sequence (P08913 whole entry): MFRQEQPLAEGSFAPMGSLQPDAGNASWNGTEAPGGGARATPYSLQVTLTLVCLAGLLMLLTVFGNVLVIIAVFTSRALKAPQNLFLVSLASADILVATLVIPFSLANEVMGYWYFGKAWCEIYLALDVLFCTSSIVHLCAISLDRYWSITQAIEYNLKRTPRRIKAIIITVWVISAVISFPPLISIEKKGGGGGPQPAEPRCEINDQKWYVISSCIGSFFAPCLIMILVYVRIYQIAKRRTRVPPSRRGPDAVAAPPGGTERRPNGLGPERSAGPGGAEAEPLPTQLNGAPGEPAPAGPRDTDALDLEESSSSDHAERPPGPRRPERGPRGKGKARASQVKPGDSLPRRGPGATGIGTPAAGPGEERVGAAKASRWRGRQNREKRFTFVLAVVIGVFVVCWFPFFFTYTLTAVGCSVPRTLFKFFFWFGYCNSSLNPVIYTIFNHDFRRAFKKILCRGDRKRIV
Reported Ki on Alpha-2A adrenergic receptor (Homo sapiens, UniProt P08913) for assorted compounds, compiled from publications.
recorded metric: Ki (µM)

[P] Brc1ccccc1Nc1ncc[nH]1
[Q] CCC[C@H]1[C@@H]2c3ccccc3C[C@]12c1c[nH]cn1
[R] CC1=C(C(=O)NCCCN2CCC(c3ccc(F)cc3C#N)CC2)[C@@H](c2ccc(F)c(F)c2)CC(=O)N1
// sort listed items: Ki descending Answer with the labels in sequence, matching the requested order. R, P, Q

* * *

A compilation of pKi values for Alpha-2A adrenergic receptor (Homo sapiens, UniProt P08913) from the published literature.
pKi: −log10 of the molar value.
recorded metric: pKi

Below: 2 compounds and their reported pKi.
[[record]]
compound = "CC(Oc1ccccc1-c1ccccn1)C1=NCCN1 (centres undefined)"
observed_value = 5.92

[[record]]
compound = "CC1=C(C(=O)NCCCN2CCC(C#N)(c3ccc(F)cc3)CC2)[C@@H](c2ccc(F)c(F)c2)CC(=O)N1C"
observed_value = 5.73


[I] COc1cc2c(cc1OC)C1=NO[C@@H](CN3CCN(C/C=C(\C)c4ccccc4OC)CC3)[C@@H]1CO2
[II] C[C@H]1[C@H]2CC[C@H]3[C@@H]4CC=C5C[C@@H](N(C)C)CC[C@]5(C)[C@H]4CC[C@]23CN1C
[III] c1coc(C2CN/C(=N/c3ccc4c(c3)OCO4)N2)c1 (centres undefined)
Hey, can you sort those compounds up there by pKi, smallest first? Lab note: record answer as labels in requested order. III, II, I
(III: 5.77, II: 6.18, I: 8.28)

[1] C(=C\c1ccccc1)/C1=NCCN1
[2] c1ccc(-c2ccccc2[C@@H]2Cc3nccn3C2)cc1
[3] Cc1c(N=C2NCCN2)cccc1-c1ccccc1
Arrange by pKi, high to low. As an answer, provide the labels arranged in the order called for. 3, 2, 1
(3: 7.72, 2: 6.67, 1: 4.33)

* * *

Assembled from different publications: Ki for Alpha-2A adrenergic receptor (Homo sapiens).
Biological target: Alpha-2A adrenergic receptor (Homo sapiens)
Sequence (P08913 whole entry): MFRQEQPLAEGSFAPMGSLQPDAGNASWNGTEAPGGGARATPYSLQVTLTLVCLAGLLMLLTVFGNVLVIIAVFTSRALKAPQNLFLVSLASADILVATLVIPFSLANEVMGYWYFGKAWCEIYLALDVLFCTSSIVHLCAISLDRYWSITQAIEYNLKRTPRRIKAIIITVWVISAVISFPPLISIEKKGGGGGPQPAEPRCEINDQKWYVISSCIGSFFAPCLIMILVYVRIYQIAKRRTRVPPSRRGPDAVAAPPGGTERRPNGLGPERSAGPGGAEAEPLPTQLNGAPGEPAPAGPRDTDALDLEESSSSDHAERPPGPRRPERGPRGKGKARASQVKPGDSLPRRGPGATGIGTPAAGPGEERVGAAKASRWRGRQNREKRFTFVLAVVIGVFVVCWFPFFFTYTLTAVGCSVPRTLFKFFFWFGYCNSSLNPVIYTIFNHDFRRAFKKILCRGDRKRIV
recorded metric: Ki (µM)

Use these answered entries as a reference point.
[[record]]
molecule = "CCCNC(=N)Nc1ccc2c(c1)CCCC2"
recorded_metric = "Ki"
observed_value = 0.676

[[record]]
molecule = "c1ccc2c(c1)CCCC2NC1=NCCCO1 (configuration not stated)"
recorded_metric = "Ki"
observed_value = 0.0257

[[record]]
molecule = "CO/C(O)=C1\\C(C)=NC(C)=C(C(=O)NCCCN2CCC(c3ccccc3)CC2)C1c1ccc(Cl)c([N+](=O)[O-])c1 (configuration not stated)"
recorded_metric = "Ki"
observed_value = 0.11


[1] CN(C)C[C@H]1CC2c3ccccc3Oc3ccc(Br)cc3[C@H]2O1 (some centres not stated)
[2] COc1cc2c(cc1OC)C1=NO[C@@H](CN3CCN(C/C(C)=C/c4ccc(F)cc4)CC3)[C@@H]1CO2
[3] CN(C)c1ccc(NC(=N)NCCO)cc1
Order the items by recorded Ki; the first position goes to the largest value. Write the labels, ordered according to the request. 3, 1, 2
(3: 1.86 µM, 1: 0.407 µM, 2: 0.0034 µM)

* * *

Below: compounds with Ki recorded for the protein given by its sequence in separate published works.
Target protein (sequence): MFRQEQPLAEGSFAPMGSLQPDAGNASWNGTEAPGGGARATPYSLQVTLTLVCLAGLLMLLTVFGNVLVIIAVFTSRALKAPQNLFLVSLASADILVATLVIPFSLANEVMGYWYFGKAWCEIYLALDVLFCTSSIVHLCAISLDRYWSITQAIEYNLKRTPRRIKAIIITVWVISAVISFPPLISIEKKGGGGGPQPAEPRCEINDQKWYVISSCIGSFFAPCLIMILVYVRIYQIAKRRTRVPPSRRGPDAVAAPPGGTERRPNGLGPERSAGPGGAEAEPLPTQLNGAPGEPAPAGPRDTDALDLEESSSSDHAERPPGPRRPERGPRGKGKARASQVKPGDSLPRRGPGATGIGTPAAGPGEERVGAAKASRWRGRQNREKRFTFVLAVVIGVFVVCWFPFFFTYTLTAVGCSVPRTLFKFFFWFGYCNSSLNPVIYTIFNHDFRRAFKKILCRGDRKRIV

Query: Ki; subject: NCCC(=O)Nc1cccc2c1cnn2S(=O)(=O)c1cccc2ccccc12 > 2 µM

I would be grateful if you could share the reported Ki for COc1cccc(-c2ccc(C(=O)N3CCN(C(=O)c4ccc5cc[nH]c5c4)[C@@H](C)C3)cc2)c1 . > 10 µM

Field request: Ki | item: COc1cccc(-c2ccc(C(=O)N3CCN(C(=O)c4ccc5cc[nH]c5c4)[C@H](C)C3)cc2)c1 > 10 µM

For the compound shown here, CNC(=O)[C@H]1O[C@@H](n2cnc3c(NC)nc(C#Cc4ccc(Cl)s4)nc32)[C@H](O)[C@@H]1O , give the reported Ki. 5 to 10 µM

* * *

Literature survey of pKi (system: Alpha-2A adrenergic receptor (Homo sapiens, UniProt P08913)).
pKi: −log10 of the molar value.
recorded metric: pKi

Guide cases for pKi, answers given:
[[record]]
compound = "CCS(=O)(=O)Nc1ccc2c(c1)C(c1c[nH]cn1)CCC2 (centres undefined)"
recorded_metric = "pKi"
observed_value = 7.64

[[record]]
compound = "COC1(C2=NCCN2)COc2ccccc2O1 (centres undefined)"
recorded_metric = "pKi"
observed_value = 8.72

[[record]]
compound = "COc1cc2c(cc1OC)C1=NO[C@@H](CN3CCN(C/C=C(\\C)c4ccc(O)cc4)CC3)[C@@H]1CO2"
recorded_metric = "pKi"
observed_value = 8.72

[[record]]
compound = "CCN(CC)CCCC(C)Nc1cnc(C(=O)Nc2cc(F)cc3cccnc23)cn1 (centres undefined)"
recorded_metric = "pKi"
observed_value = 6.17

[[record]]
compound = "CCOc1ccc(NC(=N)Nc2ccccc2)cc1"
recorded_metric = "pKi"
observed_value = 5.65

[[record]]
compound = "CS(=O)(=O)Nc1c(O)ccc2c1CCCC2C1=NCCN1 (centres undefined)"
recorded_metric = "pKi"
observed_value = 7.48

[[record]]
compound = "CN1CCN(C2=Nc3cc(Cl)ccc3N(NC(=O)c3cccc4ccccc34)c3ccccc32)CC1"
recorded_metric = "pKi"
observed_value = 6.05

[[record]]
compound = "CCOP(=O)(OCC)C1(c2ccccc2)N=CC2C(=O)N(CC34CC5CC(CC(C5)C3)C4)C(=O)C21 (racemic)"
recorded_metric = "pKi"
observed_value = 4.31


[P] CC(=O)NCC#Cc1ccc2c(c1)C=C([N+](=O)[O-])C(C(F)(F)F)O2 (centres undefined)
[Q] COc1cc(C)c(Nc2ncc[nH]2)cc1C(C)(C)C
[R] CO/C(O)=C1\C(C)=NC(C)=C(C(=O)OCCCN2CCC(c3ccccc3)(c3ccccc3)CC2)C1c1ccc([N+](=O)[O-])cc1 (centres undefined)
[S] COc1cc2c(cc1OC)C1=NO[C@@H](CN3CCN(C/C(C)=C/c4cc(F)ccc4F)CC3)[C@@H]1CO2
[T] COc1cc2c(cc1OC)C1=NO[C@@H](CN3CCN(C/C=C(\C)c4ccc(F)cc4F)CC3)[C@@H]1CO2
# ascending order, key=pKi Returns: the labels listed in the requested order. P, R, Q, T, S
(P: 5.66, R: 6.10, Q: 7.41, T: 8.03, S: 9.52)

[a] CCOc1ccc(/N=C(/N)NCc2ccco2)cc1
[b] c1ccc2c(c1)[C@H]1C[C@@]1(c1c[nH]cn1)C21CC1 (stereo in doubt; (+)-10)
[c] N=C(NCc1ccco1)Nc1ccc2c(c1)CCCC2
[d] COc1ccccc1N1CCN(C[C@@H]2CN=C3c4ccccc4N=C(SC)N32)CC1
[e] O[C@@H]1[C@H](O)[C@@H]2C[C@@H]2[C@H]1n1cnc2c(NC(C3CCC3)C3CCC3)nc(Cl)nc21
List the 5 entries from lowest pKi to highest pKi value. Hello, could you send the labels back in the order asked? Thank you. e, d, a, c, b
(e: 5.16, d: 5.52, a: 5.83, c: 6.29, b: 9.48)
